System: L1210 leukemia ip in BDF1 mice, survival T/C
method.description: NCI In Vivo Anticancer Drug Screen. Data for tumor model L1210 Leukemia (intraperitoneal) in B6D2F1 (BDF1) mice
conditions: endpoint: mean survival time; dose: 400.0 mg/kg/injection; schedule: Q01DX009 (ip); vehicle: Klucel (hydroxypropylcellulose) (HPC); higher = longer survival
Procedure: The antitumor activity of compounds was measured in mice bearing transplantable tumors. Survival or tumor size were measured and the results are expressed as the measurement made in the treated group (T) divided by the measurement made in the vehicle treated control group (C). The tumor model used in this assay is L1210 Leukemia (intraperitoneal) in B6D2F1 (BDF1) mice
Inconclusive results and toxic doses are left out.
For each of the compounds below, state its T/C.

Return the recorded T/C value; entry: COc1ncnc2nc[nH]c12
98 % of control

Give T/C for the following compound: Cc1ccc(NC(=O)Nc2cccc3ccccc23)c(C)c1
92 % of control

Output T/C of O=C(Nc1cccc(C(F)(F)F)c1)Nc1cc([N+](=O)[O-])ccc1Cl
88 % of control

Give reported T/C value for OCC(Oc1ccccc1)C(O)C(O)C(CO)Oc1ccccc1 (configuration not stated)
95 % of control

Answer with the recorded T/C of CC1CC=C(N2CCOCC2)CC1 (configuration not stated) only.
103 % of control

Please indicate T/C recorded for COc1ccc(OC)c(NC(=O)Oc2ccc(NC(C)=O)cc2)c1
96 % of control

Dear colleague, please send me the reported T/C for CCOP(=O)(OCC)C(=O)N(CC)CC when you can.
91 % of control

Report T/C, nothing else, for this compound: Clc1nnc(NC2CCCCC2)c(Cl)c1Cl
110 % of control

Respond only with T/C recorded for CCOC12c3ccccc3N(S(C)(=O)=O)C(C)C1C2(Br)Br (configuration not stated)
90 % of control

Tell me its T/C given COC(=O)c1ccccc1C(=O)Nc1cc(C(F)(F)F)ccc1Cl as the entry.
100 % of control

Please give measured T/C of the following entry: NC(N)=NC(N)=Nc1ccc2ccccc2c1[N+](=O)[O-]
98 % of control

State, in one line, measured T/C of O=C(Nc1cc(C(F)(F)F)ccc1Cl)n1cccc1
106 % of control

* * *

Test system: L1210 leukemia ip in BDF1 mice, survival T/C
method.description: NCI In Vivo Anticancer Drug Screen. Data for tumor model L1210 Leukemia (intraperitoneal) in B6D2F1 (BDF1) mice
conditions: endpoint: mean survival time; dose: 400.0 mg/kg/injection; schedule: Q01DX001 (ip); vehicle: saline; higher = longer survival
Inconclusive results and toxic doses are left out.
metric.name: T/C

Name the recorded T/C of the compound listed here: CNS(=O)(=O)c1ccccc1C(O)(c1ccccc1)c1ccccc1
111 % of control

Provide measured T/C value, entry: COc1cc2c(cc1OC)C(Cc1cc3c(cc1[N+](=O)[O-])OCO3)=NCC2
93 % of control

Please indicate T/C recorded for COc1ccc(C(O)CNC(=O)c2ccccc2)cc1 (configuration not stated)
98 % of control

State its T/C for this compound: CC(=O)Nc1nc(Cl)c2ncn(C3OC(COC(=O)c4ccccc4)C(OC(=O)c4ccccc4)C3OC(=O)c3ccccc3)c2n1 (configuration not stated)
95 % of control

State, in one line, measured T/C of CCCCC(=O)N/N=C/c1ccc(OCC)c(OCC)c1
102 % of control

Fill in T/C for record Cc1nc2ccccc2c(Oc2ccccc2)c1-c1ccccc1
96 % of control

Give T/C for O=C(N/N=C/c1ccc([N+](=O)[O-])cc1)c1cccc2ccccc12
89 % of control

Report measured T/C; entry is CC1CCOC1=O (configuration not stated)
96 % of control

Provide only the value of recorded T/C for COC(O)C(Cl)(Cl)Cl (configuration not stated)
109 % of control

Give reported T/C value for CC(=O)OCC1OC(Sc2cc(Cl)ccc2Cl)C(OC(C)=O)C(OC(C)=O)C1OC(C)=O (configuration not stated)
100 % of control

Let me know recorded T/C for OCC(O)C(O)C(O)C1SCCS1 (configuration not stated) , thanks.
104 % of control

Dear colleague, please send me the reported T/C for O=C(OC1CCC/C=C\CCCC1)c1ccc([N+](=O)[O-])cc1 (configuration not stated) when you can.
96 % of control

Write down T/C measured for item CC(C)(C)N1CC(C(=O)c2ccccc2)C1c1ccccc1 (configuration not stated)
92 % of control

// fetch T/C given entry CCN(CC(=O)O)CC(=O)O
96 % of control

Return value of T/C for input CN(C)S(=O)(=O)c1ccc(NC(=O)OCc2ccccc2)cc1 , no commentary.
92 % of control

Give reported T/C value for CC(=O)OCCc1nnnn1C
103 % of control

Check the records and state T/C for Nc1ccc(Cc2nc3ccccc3[nH]2)cc1
98 % of control

For the compound COc1ccc(-c2oc3ccccc3c(=O)c2O)cc1 , give its reported T/C.
98 % of control

Return value of T/C for input CC(=O)NC1CCC(NC(C)=O)CC1 (configuration not stated) , no commentary.
104 % of control

Provide T/C value for the following compound: CC(=O)Oc1cc(C)cc(OC(C)=O)n1
96 % of control

Read off the recorded T/C for O=S(=O)(/C=C/c1ccccc1)N1CCCCC1
102 % of control

Tell us which T/C value is on record for COc1ccc(OC(=O)N2C=Cc3ccccc3C2C#N)cc1 (configuration not stated)
91 % of control

Supply measured T/C of CCOC(=O)NC(/C=C/c1ccccc1)NC(=O)OCC in your reply.
100 % of control

Note T/C for the compound shown: O=c1c([N+](=O)[O-])c[nH]c2cc(Cl)ccc12
97 % of control

Determine its reported T/C: CCC(CC)c1cccc2ccccc12
108 % of control

Please supply the value of reported T/C for the item CCC1COP(=O)(c2ccccc2)OC1 (configuration not stated)
100 % of control

For the compound CC1CC(=O)Oc2cc(O)c(O)cc21 (configuration not stated) , report T/C.
95 % of control
